Recorded Affinity ELISA CPE mutant ratio (1:9, pH 6.0/7.4) for the following molecules
- Target entity: T1, Axl (Homo sapiens, UniProt P30530)
- T1 sequence (P30530 26-451 limits assumed): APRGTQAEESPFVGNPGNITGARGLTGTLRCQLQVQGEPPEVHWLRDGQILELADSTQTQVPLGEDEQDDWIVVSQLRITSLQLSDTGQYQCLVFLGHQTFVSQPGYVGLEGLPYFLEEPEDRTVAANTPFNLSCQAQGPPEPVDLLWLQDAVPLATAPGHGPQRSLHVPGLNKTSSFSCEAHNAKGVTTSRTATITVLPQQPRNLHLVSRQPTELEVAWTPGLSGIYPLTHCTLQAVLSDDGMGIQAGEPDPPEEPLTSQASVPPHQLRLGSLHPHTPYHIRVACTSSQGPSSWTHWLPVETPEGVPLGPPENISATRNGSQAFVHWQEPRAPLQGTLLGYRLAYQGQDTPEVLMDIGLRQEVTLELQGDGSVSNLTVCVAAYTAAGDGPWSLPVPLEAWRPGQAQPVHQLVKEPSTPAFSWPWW
- Assay summary: Affinity ELISA of CPE mutant antibodies for binding to Axl at pH 6.0 over pH 7.4
- Particulars: light chain variable region mutants; 1:9 dilution
Quantity: Affinity ELISA CPE mutant ratio (1:9, pH 6.0/7.4)

- LC-F092G (antibody, V domains shown) VH: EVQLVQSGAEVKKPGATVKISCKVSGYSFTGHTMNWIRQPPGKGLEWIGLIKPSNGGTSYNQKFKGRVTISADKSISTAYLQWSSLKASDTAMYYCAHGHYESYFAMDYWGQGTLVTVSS VL: DIQMTQSPSSLSASVGDRVTITCKASQDVSSAVAWYQQKPGQAPRLLIYWASTRHTGVPSRFSGSGSGTEFTLTISSLQPDDFATYYCQEHGSTPLTFGQGTKVEIK: 4.758
- LC-V029W (antibody, V domains shown) VH: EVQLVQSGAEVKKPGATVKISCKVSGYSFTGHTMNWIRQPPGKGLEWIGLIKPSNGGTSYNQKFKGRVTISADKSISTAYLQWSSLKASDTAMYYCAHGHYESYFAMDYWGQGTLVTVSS VL: DIQMTQSPSSLSASVGDRVTITCKASQDWSSAVAWYQQKPGQAPRLLIYWASTRHTGVPSRFSGSGSGTEFTLTISSLQPDDFATYYCQEHFSTPLTFGQGTKVEIK: 2.353
